Attribution: patent US20240270821A1

- ASSAY_COMMENT: in vivo
- Parameters: species or system cynomolgus monkeys
- TEST_SETTINGS: both sexes, cynomolgus monkey, iv, 10 nmol/kg
Starred links: 1 amine or outer side, 2 acyl side, 3 side chain; linkers in the order of their positions; H or OH if unused. Non-standard residues stand in square brackets, D forms with d. Groups on a side chain read outwards from the residue. *: point of attachment. C18 diacid = O=C(O)CCCCCCCCCCCCCCCCC(=O)*; αMePhe(2-F) = C[C@](N)(Cc1ccccc1F)C(=O)O; γGlu = O=C(O)[C@H](CCC(=O)[*:2])N[*:1]; αMe4Pal = C[C@](N)(Cc1ccncc1)C(=O)O; αMeY = C[C@](N)(Cc1ccc(O)cc1)C(=O)O; 4Pal = N[C@@H](Cc1ccncc1)C(=O)O; αMeL = CC(C)C[C@](C)(N)C(=O)O; αMeS = C[C@](N)(CO)C(=O)O; Orn = NCCC[C@H](N)C(=O)O; AEEA = NCCOCCOCC(=O)O; Aib = CC(C)(N)C(=O)O
hey, just use yes (1) if measured clearance is less than 1 mL/h/kg, otherwise no (0)

Example entries and their recorded answers appear below.
SUBSTANCE	CLASSIFICATION
H-Y[Aib]QGT[αMePhe(2-F)]TSD[4Pal][αMeS]I[αMeL]LD[Orn]K([AEEA-γGlu-C18 diacid])AQ[αMe4Pal]EFI[dE][αMeY]LIEGGPSSGAPPPSGSE-NH2 [Example 712]	yes (1)
H-Y[Aib]QGTFTSD[4Pal]SQ[αMeL]LDKK([γGlu-γGlu-C18 diacid])AQ[αMe4Pal]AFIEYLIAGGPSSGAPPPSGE-NH2 [Example 883]	no (0)
H-Y[Aib]QGT[αMePhe(2-F)]TSD[4Pal][αMeS]I[αMeL]LD[Orn]K([AEEA-γGlu-C18 diacid])AQ[αMe4Pal]EFI[dE][αMeY]LIEGGPSSGAPPPSGGGE-NH2 [Example 741]	no (0)
H-Y[Aib]QGT[αMePhe(2-F)]TSD[4Pal]SILLDKK([γGlu-γGlu-C18 diacid])AQ[Aib]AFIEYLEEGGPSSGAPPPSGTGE-NH2 [Example 510]	yes (1)
H-Y[Aib]QGTFTSD[4Pal]SQ[αMeL]LD[Orn]K([γGlu-γGlu-C18 diacid])AQ[αMe4Pal]AFIE[αMeY]LIEGGPSSGEPPPSGSEE-NH2 [Example 1027]	no (0)

Is 1 mL/h/kg strictly greater than the substance's reported clearance? substance: H-Y[Aib]QGT[αMePhe(2-F)]TSD[4Pal]SI[αMeL]LD[Orn]K([γGlu-γGlu-C18 diacid])AQ[αMe4Pal][Orn]FI[dE][αMeY]LIEGGPSSGEPPPETE-NH2 [Example 686]
no (0)
